Sourced from ChEMBL document CHEMBL4622915

tested on: HT-29; experiment: Anticancer activity against human HT-29 cells assessed as reduction in cell viability measured after 72 hrs by SRB assay; type: functional, cell-based; details: HT-29, 72 h
Checkbox rule: IC50 lower than 8 µM = MET; IC50 not lower than 8 µM = NOT MET.

compound	assaySystem	className
C=C1CC[C@@H]2[C@](C)(COC(C)=O)[C@H](OC(C)=O)CC[C@@]2(C)[C@@H]1C[C@H](SC(=S)N(Cc1ccccc1)Cc1ccccc1)C1=CCOC1=O	HT-29	MET
C=C1CC[C@@H]2[C@](C)(COC(C)=O)[C@H](OC(C)=O)CC[C@@]2(C)[C@@H]1C[C@H](SC(=S)N1CCN(Cc2ccc(Cl)cc2)CC1)C1=CCOC1=O	HT-29	NOT MET
C=C1CC[C@@H]2[C@](C)(COC(C)=O)[C@H](OC(C)=O)CC[C@@]2(C)[C@@H]1C[C@H](SC(=S)N1CCN(c2ccc(C)cc2)CC1)C1=CCOC1=O	HT-29	NOT MET
C=C1CC[C@@H]2[C@](C)(COC(C)=O)[C@H](OC(C)=O)CC[C@@]2(C)[C@@H]1C[C@H](SC(=S)N1CCOCC1)C1=CCOC1=O	HT-29	MET
C=C1CC[C@@H]2[C@](C)(COC(C)=O)[C@H](OC(C)=O)CC[C@@]2(C)[C@@H]1C/C=C1/C(=O)OC[C@H]1OC(C)=O	HT-29	NOT MET
C=C1CC[C@@H]2[C@](C)(COC(C)=O)[C@H](OC(C)=O)CC[C@@]2(C)[C@@H]1C[C@H](SC(=S)N1CCN(c2ccccc2OC)CC1)C1=CCOC1=O	HT-29	MET
C=C1CC[C@@H]2[C@](C)(COC(C)=O)[C@H](OC(C)=O)CC[C@@]2(C)[C@@H]1C[C@H](SC(=S)N1CCN(C(c2ccccc2)c2ccc(Cl)cc2)CC1)C1=CCOC1=O (stereo partly drawn)	HT-29	NOT MET
